tested target: 5-HT4 receptor (Cavia porcellus)
Construct: the mixture was suspended to give receptor membrane preparations; from tissue; host or cells: guinea pig (Slc-Hartley) brain striatum membranes
Sequence (O70528 whole entry): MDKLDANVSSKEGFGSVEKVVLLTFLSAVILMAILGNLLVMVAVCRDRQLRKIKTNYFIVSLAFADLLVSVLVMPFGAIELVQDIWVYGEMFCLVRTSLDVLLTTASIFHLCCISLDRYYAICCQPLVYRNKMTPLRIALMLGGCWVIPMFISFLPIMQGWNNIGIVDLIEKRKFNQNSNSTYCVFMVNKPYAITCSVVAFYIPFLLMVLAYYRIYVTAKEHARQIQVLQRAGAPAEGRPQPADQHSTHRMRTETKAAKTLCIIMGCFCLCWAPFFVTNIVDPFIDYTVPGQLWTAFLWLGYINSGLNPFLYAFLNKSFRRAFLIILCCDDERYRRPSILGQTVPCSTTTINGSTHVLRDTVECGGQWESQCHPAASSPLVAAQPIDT
protocol summary: Serotonin 4 (5-HT4) receptor binding assay
Parameters: species or system guinea pig
experimental conditions: inhibition of specific binding of 0.1 nM [3H]-GR113808; guinea pig striatum membrane preparations; 37° C., 30 minutes; read-out: IC50
// reported IC50 for each item listed
# output: bare number, implied unit nM

Use the examples below as a reference point.
INSERT INTO results (chemical_smiles, tested_target, unit_descriptor, result_number) VALUES
  ('CCc1ccc(C(=O)N2CCC(CN3CCO[C@@H](CNC(=O)c4cc(Cl)c(N)cc4OC)C3)CC2)cc1', '5-HT4 receptor (Cavia porcellus)', 'nM', 0.87),
  ('CCOc1cc(N)c(Cl)cc1C(=O)NC[C@H]1CN(CC2CCN(C(=O)c3ccc(C)cc3)CC2)CCO1', '5-HT4 receptor (Cavia porcellus)', 'nM', 0.23),
  ('COc1ccc(C(=O)N2CCC(CN3CCO[C@@H](CNC(=O)c4cc(Cl)c(N)cc4OC)C3)CC2)cc1', '5-HT4 receptor (Cavia porcellus)', 'nM', 3.51);

Next compound, please.
Could you tell me which IC50 is on file for `COc1ccccc1NC(=O)N1CCC(CN2CCO[C@@H](CNC(=O)c3cc(Cl)c(N)cc3OC)C2)CC1` ? 1.46
